Below is a list of entries, each paired with its recorded Mean % WT Binding value.
Target: human CD33 F243A (human, UniProt P20138 18-364)
Sequence (P20138 18-364 F243A limits assumed): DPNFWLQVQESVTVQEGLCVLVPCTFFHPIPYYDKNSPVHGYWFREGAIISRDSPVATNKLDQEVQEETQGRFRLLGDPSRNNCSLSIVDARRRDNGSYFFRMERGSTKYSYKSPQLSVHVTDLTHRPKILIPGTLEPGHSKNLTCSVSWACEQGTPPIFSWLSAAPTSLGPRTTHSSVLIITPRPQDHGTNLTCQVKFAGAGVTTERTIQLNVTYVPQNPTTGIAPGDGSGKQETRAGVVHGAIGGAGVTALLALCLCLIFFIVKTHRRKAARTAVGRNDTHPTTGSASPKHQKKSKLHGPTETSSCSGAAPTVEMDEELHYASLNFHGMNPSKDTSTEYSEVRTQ
Test: alanine scan, flow cytometry, HEK293-T;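 also: antibody binding to each alanine-substituted CD33 mutant expressed transiently in HEK293-T, read as fluorescence minus background, mean of duplicates, relative to wild-type CD33 set as 100%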
VALUE_KIND: Mean % WT Binding (% WT binding)

BINDER | UNITS_SYMBOL | TEST_VALUE
Refmab #2 (antibody, V domains shown, The alanine scan used IgG or Fab) VH: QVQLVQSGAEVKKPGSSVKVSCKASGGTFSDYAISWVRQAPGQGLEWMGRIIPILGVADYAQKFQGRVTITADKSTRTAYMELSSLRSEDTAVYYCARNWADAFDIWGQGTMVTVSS VL: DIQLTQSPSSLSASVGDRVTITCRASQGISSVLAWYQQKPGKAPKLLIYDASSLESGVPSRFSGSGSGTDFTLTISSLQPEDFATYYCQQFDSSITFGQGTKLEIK | % WT binding | 102
Refmab #4 (antibody, V domains shown, The alanine scan used IgG or Fab) VH: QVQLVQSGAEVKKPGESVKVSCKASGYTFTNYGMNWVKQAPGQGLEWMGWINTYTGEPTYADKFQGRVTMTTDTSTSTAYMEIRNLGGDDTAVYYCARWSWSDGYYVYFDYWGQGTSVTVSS VL: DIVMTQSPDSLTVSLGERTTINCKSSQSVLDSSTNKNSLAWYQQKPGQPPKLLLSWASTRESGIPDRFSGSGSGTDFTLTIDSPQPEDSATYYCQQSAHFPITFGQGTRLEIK | % WT binding | 69.9
Refmab #3 (antibody, V domains shown, The alanine scan used IgG or Fab) VH: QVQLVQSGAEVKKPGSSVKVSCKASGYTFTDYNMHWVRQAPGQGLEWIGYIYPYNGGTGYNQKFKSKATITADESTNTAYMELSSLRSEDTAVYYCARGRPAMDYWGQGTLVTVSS VL: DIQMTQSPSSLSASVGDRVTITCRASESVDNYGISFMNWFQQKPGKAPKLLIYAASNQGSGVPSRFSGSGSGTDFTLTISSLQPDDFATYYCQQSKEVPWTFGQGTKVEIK | % WT binding | 107
Refmab #1 (antibody, V domains shown, The alanine scan used IgG or Fab; also called hP67.6) VH: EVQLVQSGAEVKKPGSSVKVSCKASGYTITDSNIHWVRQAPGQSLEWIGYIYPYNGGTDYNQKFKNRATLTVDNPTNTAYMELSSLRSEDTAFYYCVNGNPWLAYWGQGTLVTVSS VL: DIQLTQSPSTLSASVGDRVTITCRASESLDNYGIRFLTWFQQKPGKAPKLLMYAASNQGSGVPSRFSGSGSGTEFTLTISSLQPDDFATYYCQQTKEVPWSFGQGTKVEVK | % WT binding | 86.5
